biological target: EIF3H (UniProt O15372); experiment: log2 ratio of Biotin-Ahx-Ub-VS probe labelling (fragment/DMSO); higher = less target engagement (more negative = stronger competition), active = hit call of the paper (q ≤ 0.05, log2 ratio ≤ -1); conditions: compound concentration: 200 uM; treatment time: 3 h
Sequence (O15372 whole entry, the tested form may be a part): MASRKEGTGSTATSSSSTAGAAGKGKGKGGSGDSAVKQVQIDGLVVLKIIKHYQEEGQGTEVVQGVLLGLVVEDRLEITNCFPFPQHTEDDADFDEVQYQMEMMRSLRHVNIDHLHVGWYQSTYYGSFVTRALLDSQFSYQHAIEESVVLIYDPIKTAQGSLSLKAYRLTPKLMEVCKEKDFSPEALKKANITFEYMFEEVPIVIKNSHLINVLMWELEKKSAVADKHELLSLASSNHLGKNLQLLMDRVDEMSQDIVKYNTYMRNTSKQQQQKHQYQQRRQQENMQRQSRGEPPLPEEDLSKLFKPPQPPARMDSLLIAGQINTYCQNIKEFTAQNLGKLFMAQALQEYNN
Reported log2 ratio of Biotin-Ahx-Ub-VS probe labelling values for a set of compounds
readout: log2 ratio of Biotin-Ahx-Ub-VS probe labelling

> print(dat)
                                   compound          assayed.system  value.measured
1  O=C(CCl)NC1CCCCNC1=O (stereo unspecified)  EIF3H (UniProt O15372)           0.103
2             CS(=O)(=O)c1ccc(NC(=O)CCl)cc1  EIF3H (UniProt O15372)            0.14
3          CN(Cc1nc2ccccc2[nH]1)C(=O)CCl.Cl  EIF3H (UniProt O15372)           0.225
4  CC1CCc2onc(CNC(=O)CCl)c2C1 (stereo unspecified)  EIF3H (UniProt O15372)        -0.00651
5                 CNC(=O)C1CCN(C(=O)CCl)CC1  EIF3H (UniProt O15372)           0.232
6               Cl.O=C(CCl)NCCN1CCc2ccccc21  EIF3H (UniProt O15372)           0.469

----------
target: USP10 (UniProt Q14694); assay: log2 ratio of Biotin-Ahx-Ub-VS probe labelling (fragment/DMSO); higher = less target engagement (more negative = stronger competition), active = hit call of the paper (q ≤ 0.05, log2 ratio ≤ -1); settings: compound concentration: 200 uM; treatment time: 3 h
Sequence (Q14694 whole entry, the tested form may be a part): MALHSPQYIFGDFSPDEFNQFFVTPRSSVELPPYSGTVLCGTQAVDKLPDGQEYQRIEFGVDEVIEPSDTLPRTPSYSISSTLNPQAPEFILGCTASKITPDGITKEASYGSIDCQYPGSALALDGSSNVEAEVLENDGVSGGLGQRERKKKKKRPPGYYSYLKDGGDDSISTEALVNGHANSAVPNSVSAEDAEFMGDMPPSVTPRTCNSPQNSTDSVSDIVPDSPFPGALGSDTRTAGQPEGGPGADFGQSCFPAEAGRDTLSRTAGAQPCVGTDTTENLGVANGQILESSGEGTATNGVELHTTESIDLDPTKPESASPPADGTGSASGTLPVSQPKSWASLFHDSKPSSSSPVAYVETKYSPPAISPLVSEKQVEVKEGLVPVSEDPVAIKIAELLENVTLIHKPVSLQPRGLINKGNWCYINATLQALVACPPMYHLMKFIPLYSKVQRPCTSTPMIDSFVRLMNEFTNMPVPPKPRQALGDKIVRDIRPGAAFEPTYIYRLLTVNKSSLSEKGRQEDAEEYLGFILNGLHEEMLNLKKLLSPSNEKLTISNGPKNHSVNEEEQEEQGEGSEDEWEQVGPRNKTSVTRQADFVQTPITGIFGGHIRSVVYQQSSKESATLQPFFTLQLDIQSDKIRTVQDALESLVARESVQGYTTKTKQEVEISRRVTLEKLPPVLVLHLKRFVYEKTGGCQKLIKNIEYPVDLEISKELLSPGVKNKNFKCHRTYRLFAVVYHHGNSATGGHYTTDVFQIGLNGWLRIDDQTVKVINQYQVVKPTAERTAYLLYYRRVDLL
Reported log2 ratio of Biotin-Ahx-Ub-VS probe labelling values for a set of compounds
readout: log2 ratio of Biotin-Ahx-Ub-VS probe labelling

> print(dat)
                                   compound  value.measured
1  COCC1C=CCCN1C(=O)CCl (configuration not stated)         -0.0693
2            O=C(CCl)Nc1ccc2c(c1)OC(F)(F)O2          -0.126
3                 O=C(CCl)NCc1ccc2c(c1)OCO2        -0.00649
4              Cl.O=C(CCl)NC1(c2ncccn2)CCC1          0.0419
5  CCN(C(=O)CCl)C1CCS(=O)(=O)C1 (configuration not stated)          -0.169
6          O=C(CCl)NC1CCN(C(=O)C2CCCCC2)CC1         -0.0591
7  CCC(NC(=O)CCl)c1ccc(Cl)cc1 (configuration not stated)         -0.0683

----------
target: PRPF8 (UniProt Q6P2Q9); assay: log2 ratio of Biotin-Ahx-Ub-VS probe labelling (fragment/DMSO); higher = less target engagement (more negative = stronger competition), active = hit call of the paper (q ≤ 0.05, log2 ratio ≤ -1); conditions: compound concentration: 200 uM; treatment time: 3 h
log2 ratio of Biotin-Ahx-Ub-VS probe labelling below -0.04 gives class 0; log2 ratio of Biotin-Ahx-Ub-VS probe labelling at or above it gives class 1.

> print(dat)
                                    compound  qualitative.label
 1  CC1CN(c2ccc(NC(=O)CCl)cc2)CC(C)O1 (stereo not given)            class 1
 2                CNC(=O)C1(NC(=O)CCl)CCCCC1            class 0
 3                    O=C(CCl)NCCc1ccc(F)cc1            class 0
 4  O=C(CCl)NC1CCOc2ccccc21 (stereo not given)            class 0
 5              O=C(CCl)Nc1ccc(N2CCCC2=O)cc1            class 1
 6                     CC(C)n1nccc1NC(=O)CCl            class 0
 7            O=C(CCl)N1CCC(C(=O)N2CCCC2)CC1            class 1
 8                   O=C(CCl)N1CCOC2(CCC2)C1            class 0
 9               Cc1n[nH]c2c1CN(C(=O)CCl)CC2            class 1
10      O=C(CCl)N1CCCN(C(=O)c2ccc(Cl)cc2)CC1            class 1
11  CC(c1ccccc1)N(C)C(=O)CCl (stereo not given)            class 0
12  Cl.Cn1ncc2c1CC(NC(=O)CCl)CC2 (stereo not given)            class 1
13   COCC1C=CCCN1C(=O)CCl (stereo not given)            class 0
14            Cc1nc(-c2cccc(NC(=O)CCl)c2)cs1            class 1
15            N#Cc1cnn(-c2ccccc2)c1NC(=O)CCl            class 0
16              O=C(CCl)Nc1cc2c(cc1Cl)OCCCO2            class 1
17              Cc1ccc(C(=O)NCCNC(=O)CCl)cc1            class 0
18                  Cc1conc1C1CN(C(=O)CCl)C1            class 0
19       Cc1c(NC(=O)CCl)c(=O)n(-c2ccccc2)n1C            class 1
20  O=C(CCl)N(C1CCCC1)C1CCS(=O)(=O)C1 (stereo not given)            class 1
21                  O=C(CCl)N1CCC(=C(F)CO)C1            class 1
22                   Cc1ccc(CN(C)C(=O)CCl)o1            class 0
23              Cc1ccc(N(CCC#N)C(=O)CCl)cc1C            class 1
24                COc1cc(Cl)c(C)cc1NC(=O)CCl            class 0
25                Cl.O=C(CCl)NCCc1ncc(F)cc1F            class 1
26             CN(CCc1ncc(Br)cn1)C(=O)CCl.Cl            class 0
27                     Cc1cccc(C)c1NC(=O)CCl            class 0
28               O=C(CCl)N1CCC[C@@H]1c1ccon1            class 1
29          O=C(CCl)N1CCC(C(=O)N2CCCCCC2)CC1            class 1
30  O=C(CCl)N1CCOC(c2cccc(F)c2)C1 (stereo not given)            class 0
31               CCc1c[nH]c(CNC(=O)CCl)n1.Cl            class 1
32  Cc1ccc(N(C(=O)CCl)C2C=CS(=O)(=O)C2)cc1 (stereo not given)            class 1
33               Cl.O=C(CCl)N1CCn2ncc(O)c2C1            class 1
34  CC1(NC(=O)CCl)CCS(=O)(=O)C1 (stereo not given)            class 1
35          O=C(CCl)Nc1cccc(C(=O)N2CCSCC2)c1            class 1
36              CCN(Cc1ccc(C#N)cc1F)C(=O)CCl            class 1
37                       CCCn1nccc1NC(=O)CCl            class 1
38  C[C@H]1CN(C(=O)CCl)CCN1C(=O)c1cnn(C)c1.Cl            class 1
39  CC(NC(=O)CCl)c1cccc2ccccc12 (stereo not given)            class 0
40            O=C(CCl)N1CCc2[nH]c3ccccc3c2C1            class 0
41  O=C(CCl)N1CCc2nc[nH]c2C1c1ccc(Cl)cc1 (stereo not given)            class 1
42         Cl.O=C(CCl)NCc1ccnc(Oc2ccccc2F)c1            class 0
43                    Cc1ccccc1CN(C)C(=O)CCl            class 0
44       O=C(CCl)N1CC=C(c2c[nH]c3ccccc23)CC1            class 1

----------
molecular target: PSMD7 (UniProt P51665); experiment: log2 ratio of Biotin-Ahx-Ub-VS probe labelling (fragment/DMSO); higher = less target engagement (more negative = stronger competition), active = hit call of the paper (q ≤ 0.05, log2 ratio ≤ -1); settings: compound concentration: 200 uM; treatment time: 3 h
Sequence (P51665 whole entry, the tested form may be a part): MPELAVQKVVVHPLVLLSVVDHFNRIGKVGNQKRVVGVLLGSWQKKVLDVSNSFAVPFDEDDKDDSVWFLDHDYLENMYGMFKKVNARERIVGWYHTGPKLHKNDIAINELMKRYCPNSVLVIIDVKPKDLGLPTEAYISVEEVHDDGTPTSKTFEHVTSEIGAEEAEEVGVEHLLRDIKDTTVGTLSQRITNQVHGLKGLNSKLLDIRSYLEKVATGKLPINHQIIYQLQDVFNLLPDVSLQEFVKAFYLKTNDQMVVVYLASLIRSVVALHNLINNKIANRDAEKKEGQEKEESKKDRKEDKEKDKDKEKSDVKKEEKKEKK
Reported log2 ratio of Biotin-Ahx-Ub-VS probe labelling values for a set of molecules
readout: log2 ratio of Biotin-Ahx-Ub-VS probe labelling

> print(dat)
                                    molecule  value.measured
 1  CC(NC(=O)CCl)c1ccc2[nH]ncc2c1 (stereo not drawn)          -0.245
 2     Cc1cccc(NC(=O)[C@@H]2CCCN2C(=O)CCl)n1          -0.254
 3               Cl.O=C(CCl)NCCN1CCc2ccccc21         -0.0696
 4                   COc1ccc(Cl)cc1NC(=O)CCl          -0.241
 5             Cc1ccn2cc(CNC(=O)CCl)nc2c1.Cl          -0.104
 6      Cc1ccc(-c2nnc(C)[nH]2)c(NC(=O)CCl)c1          -0.177
 7  CN1c2ccccc2C(NC(=O)CCl)CS1(=O)=O (stereo not drawn)          -0.189
 8                  N#Cc1ccc(Cl)cc1NC(=O)CCl         -0.0625
 9                    O=C(CCl)NCc1ccc(Cl)cc1          0.0253
10  CC(NC(=O)CCl)c1cnn(C2CC2)c1 (stereo not drawn)          -0.168
11  Cc1ccc(N2CCC(NC(=O)CCl)C2=O)cc1 (stereo not drawn)          0.0257
12  C[C@H]1CN(C(=O)CCl)CCN1C(=O)c1cnn(C)c1.Cl         -0.0809
13       Cc1c(C#N)c(NC(=O)CCl)n(Cc2ccco2)c1C          0.0239
14  CC(NC(=O)CCl)c1cccc2ccccc12 (stereo not drawn)          0.0463
15               O=C(CCl)Nc1cc(Cl)ccc1C(=O)O         -0.0699
16                    O=C(CCl)NCCc1ccc(F)cc1          0.0236
17  CC(O)CC1CCN(C(=O)CCl)CC1 (stereo not drawn)         -0.0764
18                   O=C(CCl)Nc1cccc2ncccc12         -0.0733
19  Cl.Cn1ncc2c1CCCC2NC(=O)CCl (stereo not drawn)          0.0323
20             Cl.Cn1cnc2cc(CNC(=O)CCl)ccc21         -0.0706
21           C[C@@H](NC(=O)CCl)c1cccc(C#N)c1          -0.233
22  Cl.O=C(CCl)N1CCCC(c2ncc[nH]2)C1 (stereo not drawn)          -0.217
23                    O=C(CCl)Nc1ccc(F)cc1Cl          -0.115
24               O=C(CCl)Nc1nnc(CC(F)(F)F)o1          -0.157
25  Cc1ccc(N(C(=O)CCl)C2C=CS(=O)(=O)C2)cc1 (stereo not drawn)         -0.0467
26                CC(=O)Nc1ccc(NC(=O)CCl)cc1          -0.163
27             O=C(CCl)NCc1cccc(N2CCCC2=O)c1         -0.0566
28  O=C(CCl)N1CCCC2CCCCC21 (stereo not drawn)           -0.09
29    O=C(CCl)N1CCC(S(=O)(=O)c2ccc(F)cc2)CC1          -0.129
30             Cc1nc(CNC(=O)CCl)c2ccccn12.Cl          -0.132
31  NC(=O)C(Cc1ccccc1)NC(=O)CCl (stereo not drawn)         -0.0419
32                      O=C(CCl)NCCC1=CCCCC1          0.0106
33  O=C(CCl)N1CCOC(c2cccc(F)c2)C1 (stereo not drawn)          -0.115
